Target Or Test System: PARP7 (Homo sapiens (Human), UniProt Q7Z3E1)
Sequence (Q7Z3E1 whole entry): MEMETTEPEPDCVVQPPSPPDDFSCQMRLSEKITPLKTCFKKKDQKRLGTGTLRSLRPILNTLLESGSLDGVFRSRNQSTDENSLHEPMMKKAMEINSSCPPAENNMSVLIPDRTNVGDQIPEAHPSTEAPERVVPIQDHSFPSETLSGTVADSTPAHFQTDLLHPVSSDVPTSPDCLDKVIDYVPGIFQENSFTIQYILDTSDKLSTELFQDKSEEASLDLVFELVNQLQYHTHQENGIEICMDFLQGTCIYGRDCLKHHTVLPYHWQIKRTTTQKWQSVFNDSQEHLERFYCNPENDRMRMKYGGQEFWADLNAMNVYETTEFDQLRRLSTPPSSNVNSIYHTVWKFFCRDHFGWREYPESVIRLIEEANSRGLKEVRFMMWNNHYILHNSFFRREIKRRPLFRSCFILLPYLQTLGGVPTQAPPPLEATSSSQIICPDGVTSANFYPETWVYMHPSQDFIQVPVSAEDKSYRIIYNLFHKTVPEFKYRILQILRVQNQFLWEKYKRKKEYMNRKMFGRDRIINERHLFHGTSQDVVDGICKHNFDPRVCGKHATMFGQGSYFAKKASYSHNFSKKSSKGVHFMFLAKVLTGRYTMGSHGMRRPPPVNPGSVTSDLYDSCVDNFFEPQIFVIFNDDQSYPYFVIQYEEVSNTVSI
Test Summary: Enzymatic assay for inhibition of PARP7: TR-FRET displacement of biotinylated Probe A from the TIPARP active site
Protocol Conditions: Table A-1
pIC50: −log10 of the molar value.
Assignment: determine reported pIC50 for the given compounds.

## Input Given the entry C[C@@H](COCCC(=O)N1CCN(c2cnc(C(F)(F)F)s2)CC1)Nc1cn[nH]c(=O)c1C(F)(F)F , report its measured pIC50.
## Output > 7.00

## Input Field entry: CC(C)c1c(N2Cc3cccc(OCCO)c3C2)cn[nH]c1=O
## Output ≤ 6.00

## Input Cool, now Cc1c(OCCOCCC(=O)N2CCN(c3ncc(C(F)(F)F)cn3)CC2)cn[nH]c1=O
## Output > 7.00

## Input Repeat for the following compound: O=c1[nH]ncc(N2Cc3cccc(N4CCNCC4)c3C2)c1C(F)(F)F
## Output 6.00 to 7.00

## Input Request: N#Cc1ccc(N2CCN(C(=O)CCCOCCOc3cn[nH]c(=O)c3C(F)(F)F)CC2)nc1
## Output > 7.00

## Input Cool, now CC(=O)N1CCC(Oc2cc3c(cc2F)CN(c2cn[nH]c(=O)c2C(F)(F)F)C3)C1 (centres unmarked)
## Output > 7.00

## Input Then this compound: CN(C)C(=O)c1cccc2c1CN(c1cn[nH]c(=O)c1C(F)(F)F)C2
## Output 6.00 to 7.00

## Input Also N#Cc1ccc(N2CCN(C(=O)c3cccc(OC[C@@H]4C[C@@H](C#N)CN4c4cn[nH]c(=O)c4C(F)(F)F)c3)CC2)nc1 , if possible.
## Output ≤ 6.00
